// provenance: patent US5965560A

- ASSAYED TARGET: UniProtKB P21917
- Sequence (P21917 whole entry): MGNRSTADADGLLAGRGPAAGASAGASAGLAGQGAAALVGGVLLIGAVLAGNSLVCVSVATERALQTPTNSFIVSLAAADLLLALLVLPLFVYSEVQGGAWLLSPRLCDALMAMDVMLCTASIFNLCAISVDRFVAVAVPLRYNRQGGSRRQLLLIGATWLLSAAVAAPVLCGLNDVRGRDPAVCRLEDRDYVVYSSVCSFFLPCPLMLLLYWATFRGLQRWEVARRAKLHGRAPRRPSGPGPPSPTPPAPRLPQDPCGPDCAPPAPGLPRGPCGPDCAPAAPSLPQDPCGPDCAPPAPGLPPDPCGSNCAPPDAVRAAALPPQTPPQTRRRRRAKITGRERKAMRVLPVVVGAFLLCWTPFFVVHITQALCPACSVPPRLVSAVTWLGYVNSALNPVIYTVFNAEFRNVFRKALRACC
Structures can show the parent of a compound that is named as a salt.
Group membership follows Ki per the scheme bucket 1 = under 5 nM, bucket 2 = from 5 nM up to 9 nM, bucket 3 = 9 nM and over

>  <MOLECULE>
COc1ccc(OC)c(CN2CCN(c3cccc(C)c3Cl)CC2)c1 [Example 28, monohydrochloride]

>  <CATEGORY>
bucket 3

$$$$
>  <MOLECULE>
COc1ccc(CN2CCN(c3cccc(C)c3Cl)CC2)c(OC)c1 [Example 27, monohydrochloride]

>  <CATEGORY>
bucket 1

$$$$
>  <MOLECULE>
COc1cc(CN2CCN(c3cccc(Cl)c3C)CC2)cc(OC)c1OC [Example 19, monohydrochloride]

>  <CATEGORY>
bucket 2

$$$$
>  <MOLECULE>
COc1cc(CN2CCN(c3ccc(C)c(Cl)c3)CC2)cc(OC)c1OC [Example 20, monohydrochloride]

>  <CATEGORY>
bucket 1

$$$$
>  <MOLECULE>
COc1cccc(CN2CCN(c3cccc(C)c3Cl)CC2)c1OC [Example 26, monohydrochloride]

>  <CATEGORY>
bucket 3

$$$$
>  <MOLECULE>
COc1cc(CN2CCN(c3cc(Cl)ccc3C)CC2)cc(OC)c1OC [Example 21, monohydrochloride]

>  <CATEGORY>
bucket 2

$$$$
>  <MOLECULE>
COc1cc(CN2CCN(c3cccc(C)c3)CC2)cc(OC)c1OC [Example 7, monohydrochloride]

>  <CATEGORY>
bucket 2

$$$$
>  <MOLECULE>
COc1cc(CN2CCN(c3ccc(C)cc3)CC2)cc(OC)c1OC [Example 8, monohydrochloride]

>  <CATEGORY>
bucket 2

$$$$
